# method.description: yeast growth modulation, basal conditions, primary screen, YJM789 clinical isolate, OD600, 24 h (AID 1089);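 further: growth of clinical yeast isolate S. cerevisiae YJM 789 seeded 1000 cells per well; test concentration not given here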
# experimental.conditions: S. cerevisiae YJM789 growth, higher = more signal, called active from +8 up or from −8 down
reported.property: z-score
// print number alone

Please list z-score recorded for the compound COC(=O)CC=C[C@@H](C)[C@@H](C=NO[C@@H](C)c1cn([C@H](CO)Cc2ccccc2)nn1)NS(=O)(=O)c1ccc(C)cc1 -2.32

Dear colleague, please send me the reported z-score for CC(C)(C)N1C(=O)[C@H]2[C@H]3[C@H](O)[C@H](O)CC(=O)[C@@H]3CC[C@H]2C1=O when you can. -0.128

Provide measured z-score value, entry: CCOC(=O)[C@H](CC(C)C)NC(=O)CCC1CC(OC(=O)NCc2cccc3ccccc23)CC2(CCCC(COC(=O)NCc3cccc(C(F)(F)F)c3)O2)O1 (some centres not stated) 0.533

Given the compound CO[C@H]1COC(=O)[C@@H](C)COC(=O)[C@@H](OCc2ccccc2)C=C[C@@H]1C , write its reported z-score. 1.3

Specify reported z-score for the compound shown: O=C1[C@H]2[C@H]3[C@H](O)[C@H](O)CC(=NO[C@@H]4O[C@H](CO)[C@@H](O)[C@H](O)[C@H]4O)[C@H]3CC[C@H]2C(=O)N1c1cccc(Oc2ccccc2)c1 -0.513

Provide measured z-score value, entry: CC(CCN1CCc2nc(-c3ccccc3)c(-c3ccccc3)cc2C1)=NOC[C@@H](O)[C@H]1O[C@@H]2OC(C)(C)O[C@@H]2[C@H]1O -0.987

Quote z-score reported for COC(=O)CC=C[C@@H](C)[C@@H](C=NO[C@H](C)c1cn([C@@H]2COC[C@H]2O)nn1)NS(=O)(=O)c1ccc(C)cc1 please. 0.412

Give z-score for CCN1C(=O)[C@@H]2[C@H]3C(=CC[C@@H]2C1=O)C1(OCCCO1)[C@H]1O[C@H]1[C@H]3O 1.17

Look up and report measured z-score for this entry: CC(C)(C)N1C(=O)[C@H]2[C@H]3[C@H](O)C=CC(=O)[C@@H]3CC[C@H]2C1=O 0.985

Note z-score for the compound shown: C=CC[C@@H]1C=C[C@H](ON=C[C@@H](C)[C@H](OCc2ccccc2)C(C)C)[C@@H](CO)O1 -1.46

For the compound COC(=O)CC=C[C@@H](C)[C@@H](C=NO[C@@H](C)c1cc(-c2c(C)cc(C)cc2C)no1)NS(=O)(=O)c1ccc(C)cc1 , report z-score. -0.0649

Return value of z-score for input CC(C)CON=C1C[C@@H](O)[C@@H](O)[C@@H]2[C@@H]3C(=O)N(Cc4ccc5c(c4)OCO5)C(=O)[C@@H]3CC[C@H]12 , no commentary. 0.306

Quick one: give measured z-score for C#CCCCON=C1C[C@@H](O)[C@@H](O)[C@@H]2[C@@H]3C(=O)N(Cc4ccccc4)C(=O)[C@@H]3CC[C@@H]12 -0.956

Entry Cc1cc2c(nc1C)CCCN2CC(O)CN1CCCc2nc(C)c(C)cc21 needs its z-score filled in; supply it. 0.623

Identify z-score associated with the compound CCOC(=O)[C@H](CC(C)C)NC(=O)CCC1CC(OC(=O)NCc2ccc3c(c2)OCO3)CC2(CCCC(COC(=O)NCC3CCCCC3)O2)O1 (some centres not stated) 0.192

Complete the entry with z-score for O=C1C[C@@H](O)[C@@H](O)[C@@H]2[C@@H]3C(=O)N(C[C@@H]4CCCO4)C(=O)[C@@H]3CC[C@H]12 0.788

Retrieve z-score measured for CO[C@H]1COC(=O)CCC[C@@H](C)[C@H](OC)COC(=O)[C@@H]2CCCN2C(=O)CC=C[C@@H]1C and print it. -0.671

Identify measured z-score corresponding to C=COC[C@@H]1CN2[C@@H](CC[C@@H](C)[C@@H]2c2ccc(Br)cc2)C(=O)O1 -0.872

Consider the compound COC(=O)[C@@H]1CC[C@H](C)[C@@H](c2ccc(C)cc2)N1C(=O)c1ccc(C=NO[C@H](C)c2cn([C@@H]3COC[C@H]3O)nn2)cc1 . State its measured z-score. 0.524

Determine its reported z-score: CCOC(=O)NN=C1C[C@@H](O)[C@@H](O)[C@@H]2[C@@H]3C(=O)N(Cc4ccc5c(c4)OCO5)C(=O)[C@@H]3CC[C@H]12 -0.126

Please report z-score for the following compound: CC(C)CON=C1C[C@@H](O)[C@@H](O)[C@@H]2[C@@H]3C(=O)N(C[C@@H]4CCCO4)C(=O)[C@@H]3CC[C@@H]12 -1.49

Give the value of z-score reported for the following: C=CC[C@@H]1C=C[C@H](ON=C(C)CCC(=O)OC[C@H]2O[C@H](c3ccccc3)C=C[C@@H]2Oc2ccc(OC)cc2)[C@@H](CO)O1 0.0343
